Source listed as ChEMBL document CHEMBL4513216.

Test system: Plasmodium berghei
Experiment: Screen against P. berghei liver stage (PbLuc), transformed with Luciferase, at 10uM
Format: functional, HepG2
Conditions: tested at 10 uM
Screen size: about 69,000 compounds; about 8,600 (12%) showed an effect of 50% or more. This excerpt belongs to a sample that is enriched for strong results.
Categories are assigned from the measured INHIBITION using these intervals: 0 = under 10%, 1 = from 10% up to 40%, 2 = 40% and over

See these solved cases before continuing.
- CCC(CC)C(=O)n1ccn(S(=O)(=O)c2ccc(C)cc2)c1=O: 1
- O=C(NC(c1ccc(Cl)cc1)C(F)(F)F)c1nc(=O)[nH][nH]1 (centres undefined): 2
- O=C(c1cc(Cn2ccc3ccccc32)[nH]n1)N1CCCCC1CO (centres undefined): 1
- Cn1nc(C(C)(C)C)cc1NC(=O)Cn1ccnc1: 1
- O=C(CC1CC1)N1CCC2(COCc3cnc(N4CCOCC4)nc32)C1 (centres undefined): 2

Let us examine a further case.
Input: Which category fits this record: CN(CC1CCN(c2ccccc2)C1)c1ccc(Cn2ccnc2)cn1 (centres undefined)
Output: 2
